tested on: RARb:RXRa (NR concentration 270 nM, RXRa partner concentration 90 nM); experiment: PBM binding z-score (relative to random genomic background probes); higher = stronger binding; sequences stand for … in GC…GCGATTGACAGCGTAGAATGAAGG
Classification field: enter 1 (yes) for PBM binding z-score values not below 2, 0 (no) for values below it.

Q) Record TCTCGGAGGACACGAACGTCAGAGCTTTCCAGAG ; criterion: PBM binding z-score no lower than 2. Met?
A) 0 (no)

Q) Record TCCATTAGTTGAAGGGCAACCGACGAGTCCGTTT ; criterion: PBM binding z-score no lower than 2. Met?
A) 0 (no)

Q) Record TCTATTAGTTGATCAGGGCAACCGAAACAGCGGA ; criterion: PBM binding z-score no lower than 2. Met?
A) 0 (no)

Q) Record GCGACTGGGGCAAATCAGGTTACCATAAGGTTGG ; criterion: PBM binding z-score no lower than 2. Met?
A) 0 (no)

Q) Record CCTTAAGGGTCACTCCAGGTTATAGCATCGGAGT ; criterion: PBM binding z-score no lower than 2. Met?
A) 1 (yes)

Q) Record AATACAGGGTCAACGTAGGCCAGAGTACGCACAG ; criterion: PBM binding z-score no lower than 2. Met?
A) 1 (yes)

Q) Record ATATGTAGGTTATCGGTTCATTCAGTTTGCGCAT ; criterion: PBM binding z-score no lower than 2. Met?
A) 0 (no)

Q) Record CCTTACGGGTCAAGCTTATAGCACGGGTGGTACG ; criterion: PBM binding z-score no lower than 2. Met?
A) 1 (yes)

Q) Record ATCGAAAGGTCGTGAGGGGAGTATACAGAAAGGC ; criterion: PBM binding z-score no lower than 2. Met?
A) 1 (yes)

Q) Record GCGACTGGGCCATCAGCAGGTTACCATAACTTAA ; criterion: PBM binding z-score no lower than 2. Met?
A) 0 (no)

Q) Record TCTATTAGTTAATTAGGGCAACCGAAACAGCGGA ; criterion: PBM binding z-score no lower than 2. Met?
A) 0 (no)

Q) Record ATCTCTAGGTAACCAAGTTCAGGGAATGCCGAAC ; criterion: PBM binding z-score no lower than 2. Met?
A) 0 (no)
